target: c-Met-Fc (Homo sapiens, UniProt P08581); assay: Binding ability by surface plasmon resonance (SPR, Biacore); conditions: Table 8, c-Met-Fc
Sequence (P08581 with tags, fused parts or gaps limits assumed): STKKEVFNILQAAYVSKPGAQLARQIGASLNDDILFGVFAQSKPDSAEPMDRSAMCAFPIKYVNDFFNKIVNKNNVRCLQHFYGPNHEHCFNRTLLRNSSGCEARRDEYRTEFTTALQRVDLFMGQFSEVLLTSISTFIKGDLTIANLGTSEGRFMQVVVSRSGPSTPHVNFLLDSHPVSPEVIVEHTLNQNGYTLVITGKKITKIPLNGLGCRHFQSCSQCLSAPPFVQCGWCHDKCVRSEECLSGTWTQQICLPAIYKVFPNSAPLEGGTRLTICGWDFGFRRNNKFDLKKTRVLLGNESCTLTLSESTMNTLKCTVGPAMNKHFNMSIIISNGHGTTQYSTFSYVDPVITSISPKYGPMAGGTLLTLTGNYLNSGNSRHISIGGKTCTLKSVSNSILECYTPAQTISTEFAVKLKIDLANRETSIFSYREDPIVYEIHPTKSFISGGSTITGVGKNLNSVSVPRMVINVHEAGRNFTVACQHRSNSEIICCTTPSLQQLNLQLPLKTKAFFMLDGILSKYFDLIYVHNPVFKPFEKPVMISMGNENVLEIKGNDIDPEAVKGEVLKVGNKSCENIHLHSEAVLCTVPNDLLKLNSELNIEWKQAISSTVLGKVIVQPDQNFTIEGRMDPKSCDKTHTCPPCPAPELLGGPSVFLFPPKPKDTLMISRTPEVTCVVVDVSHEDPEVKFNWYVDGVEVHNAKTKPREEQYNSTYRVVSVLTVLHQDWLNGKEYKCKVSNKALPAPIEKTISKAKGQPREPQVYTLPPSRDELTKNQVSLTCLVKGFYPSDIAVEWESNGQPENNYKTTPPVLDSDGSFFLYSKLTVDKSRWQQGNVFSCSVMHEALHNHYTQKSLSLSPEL
Sequence (P08581 25-307 limits assumed): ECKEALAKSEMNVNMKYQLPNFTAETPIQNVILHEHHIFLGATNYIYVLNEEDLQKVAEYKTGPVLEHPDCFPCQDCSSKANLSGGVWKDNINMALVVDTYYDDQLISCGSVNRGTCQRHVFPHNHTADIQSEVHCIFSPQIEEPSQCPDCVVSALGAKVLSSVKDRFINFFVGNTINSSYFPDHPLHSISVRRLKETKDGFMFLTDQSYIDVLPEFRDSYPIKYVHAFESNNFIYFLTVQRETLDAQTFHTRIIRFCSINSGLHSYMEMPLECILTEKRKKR
Bridges are numbered along the chain shown (N, C = ends). [ ]: non-standard residue; d: D form. NMeE = CN[C@@H](CCC(=O)O)C(=O)O; NMeQ = CN[C@@H](CCC(N)=O)C(=O)O; NMeN = CN[C@@H](CC(N)=O)C(=O)O; NMeL = CN[C@@H](CC(C)C)C(=O)O
readout type: Kd (nM)

[
  {
    "substance": "N14: N-methylated peptide of D4-3 ({CH2CO}-[dY]RQFNRRTHEVWN[NMeL]DC-NH2; thioether N-16; also: bridge 1-16 listed as disulfide) [Peptide N14]",
    "unit spec": "nM",
    "numeric readout": 290
  },
  {
    "substance": "N5: N-methylated peptide of D4-3 ({CH2CO}-[dY]RQF[NMeN]RRTHEVWNLDC-NH2; thioether N-16; also: bridge 1-16 listed as disulfide) [Peptide N5]",
    "unit spec": "nM",
    "numeric readout": 200
  },
  {
    "substance": "N3: N-methylated peptide of D4-3 ({CH2CO}-[dY]R[NMeQ]FNRRTHEVWNLDC-NH2; thioether N-16; also: bridge 1-16 listed as disulfide) [Peptide N3]",
    "unit spec": "nM",
    "numeric readout": 120
  },
  {
    "substance": "N10: N-methylated peptide of D4-3 ({CH2CO}-[dY]RQFNRRTH[NMeE]VWNLDC-NH2; thioether N-16; also: bridge 1-16 listed as disulfide) [Peptide N10]",
    "unit spec": "nM",
    "numeric readout": 300
  }
]

---

biological target: c-Met (Homo sapiens, UniProt P08581); construct: endogenous in cells; host or cells: EHMES-1 (human mesothelioma); experiment: Activity of dimeric peptide by ELISA (c-Met phosphorylation level in EHMES-1 cells); format: cell-based; settings: Table 12; EHMES-1 cells, 10 minutes stimulation
Sequence (P08581 25-1390): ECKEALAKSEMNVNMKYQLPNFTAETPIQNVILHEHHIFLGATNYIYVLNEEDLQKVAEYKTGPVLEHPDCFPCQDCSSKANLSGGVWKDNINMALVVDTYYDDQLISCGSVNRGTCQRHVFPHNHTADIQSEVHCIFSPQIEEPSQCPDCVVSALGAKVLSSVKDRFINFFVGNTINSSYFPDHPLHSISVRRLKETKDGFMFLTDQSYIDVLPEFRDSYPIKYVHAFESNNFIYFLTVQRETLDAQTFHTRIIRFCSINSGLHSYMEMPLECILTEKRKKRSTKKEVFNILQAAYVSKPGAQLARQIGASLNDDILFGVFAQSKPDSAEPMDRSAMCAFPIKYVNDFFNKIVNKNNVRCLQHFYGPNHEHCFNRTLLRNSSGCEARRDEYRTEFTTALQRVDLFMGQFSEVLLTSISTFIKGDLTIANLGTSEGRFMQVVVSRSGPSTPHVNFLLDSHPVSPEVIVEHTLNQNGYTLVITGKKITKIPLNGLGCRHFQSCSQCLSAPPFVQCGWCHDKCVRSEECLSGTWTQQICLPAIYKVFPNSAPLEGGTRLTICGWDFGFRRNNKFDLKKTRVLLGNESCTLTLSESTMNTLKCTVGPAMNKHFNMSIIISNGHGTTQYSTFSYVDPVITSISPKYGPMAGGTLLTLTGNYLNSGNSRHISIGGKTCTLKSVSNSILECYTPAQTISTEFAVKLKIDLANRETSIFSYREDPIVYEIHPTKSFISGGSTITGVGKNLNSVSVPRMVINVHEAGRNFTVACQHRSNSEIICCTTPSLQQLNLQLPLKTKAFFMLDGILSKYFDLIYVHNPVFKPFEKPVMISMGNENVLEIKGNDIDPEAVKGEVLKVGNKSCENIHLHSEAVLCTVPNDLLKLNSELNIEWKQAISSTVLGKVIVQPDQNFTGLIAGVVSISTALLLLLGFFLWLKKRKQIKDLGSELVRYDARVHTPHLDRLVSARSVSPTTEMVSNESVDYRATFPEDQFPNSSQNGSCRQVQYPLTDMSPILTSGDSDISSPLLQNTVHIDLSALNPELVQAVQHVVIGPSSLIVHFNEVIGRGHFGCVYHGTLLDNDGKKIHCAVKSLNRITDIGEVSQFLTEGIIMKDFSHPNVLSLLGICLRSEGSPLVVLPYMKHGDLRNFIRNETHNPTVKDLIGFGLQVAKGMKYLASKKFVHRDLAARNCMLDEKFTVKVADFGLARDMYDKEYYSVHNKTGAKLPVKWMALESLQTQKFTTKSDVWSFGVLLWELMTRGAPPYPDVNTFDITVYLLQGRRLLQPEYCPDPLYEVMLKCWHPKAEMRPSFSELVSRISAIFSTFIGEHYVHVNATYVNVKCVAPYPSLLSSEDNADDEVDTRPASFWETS
Bridges are numbered along the chain shown (N, C = ends). Roman numbers before positions name the chains, in order. Where no end group is shown, it is not given here. [ ]: non-standard residue; d: D form.
readout type: Activity (c-Met phosphorylation level by ELISA)

[
  {
    "substance": "D4-3scr BMH: dimer of the negative control peptide D4-3scr with BMH linker ({CH2CO}-YERVNHLFRNQTWDRCGC; thioether N-16 (inferred); also: dimer of D4-3scr with BMH linker) [reference compound]",
    "result": "No"
  },
  {
    "substance": "D5-4 BMH: dimeric peptide: two D5-4 macrocycles linked through C-terminal Cys by BMH linker (peptide 1 {CH2CO}-[dY]WYYAWDQTYKAFPCG; peptide 2 {CH2CO}-[dY]WYYAWDQTYKAFPCG; thioether I:N-I:15, II:N-II:15; not fully specified (C-terminus); also: dimer: two chains joined by BMH through an added C-terminal Cys not in the letters)",
    "result": "High"
  },
  {
    "substance": "D5-4 Bis-MAL-PEG11: dimeric peptide: two D5-4 macrocycles linked through C-terminal Cys by Bis-MAL-PEG11 linker (peptide 1 {CH2CO}-[dY]WYYAWDQTYKAFPCG; peptide 2 {CH2CO}-[dY]WYYAWDQTYKAFPCG; thioether I:N-I:15, II:N-II:15; not fully specified (C-terminus); also: dimer: two chains joined by Bis-MAL-PEG11 through an added C-terminal Cys not in the letters)",
    "result": "High"
  },
  {
    "substance": "D4-3 BMH: dimeric peptide: two D4-3 macrocycles linked through C-terminal Cys by BMH linker ({CH2CO}-[dY]RQFNRRTHEVWNLDCGC; thioether N-16; not fully specified (residue 18); also: dimer: two copies joined by BMH, linker at 18 via BMH, other end not in the chain)",
    "result": "Low"
  }
]

---

biological target: c-Met-Fc (Homo sapiens); experiment: Binding ability by surface plasmon resonance (SPR, Biacore); conditions: Table 8, c-Met-Fc
Bridges are numbered along the chain shown (N, C = ends). [ ]: non-standard residue; d: D form. NMeE = CN[C@@H](CCC(=O)O)C(=O)O; NMeQ = CN[C@@H](CCC(N)=O)C(=O)O; NMeN = CN[C@@H](CC(N)=O)C(=O)O; NMeL = CN[C@@H](CC(C)C)C(=O)O

[
  {
    "substance": "N5: N-methylated peptide of D4-3 ({CH2CO}-[dY]RQF[NMeN]RRTHEVWNLDC-NH2; thioether N-16; also: bridge 1-16 listed as disulfide) [Peptide N5]",
    "kd": "0.39 10^−2 s^−1"
  },
  {
    "substance": "N3: N-methylated peptide of D4-3 ({CH2CO}-[dY]R[NMeQ]FNRRTHEVWNLDC-NH2; thioether N-16; also: bridge 1-16 listed as disulfide) [Peptide N3]",
    "kd": "0.31 10^−2 s^−1"
  },
  {
    "substance": "N10: N-methylated peptide of D4-3 ({CH2CO}-[dY]RQFNRRTH[NMeE]VWNLDC-NH2; thioether N-16; also: bridge 1-16 listed as disulfide) [Peptide N10]",
    "kd": "0.75 10^−2 s^−1"
  },
  {
    "substance": "N14: N-methylated peptide of D4-3 ({CH2CO}-[dY]RQFNRRTHEVWN[NMeL]DC-NH2; thioether N-16; also: bridge 1-16 listed as disulfide) [Peptide N14]",
    "kd": "0.59 10^−2 s^−1"
  }
]

---

target: c-Met (Homo sapiens); construct: endogenous in cells; host or cells: EHMES-1 (human mesothelioma); experiment: Activity of dimeric peptide by ELISA (c-Met phosphorylation level in EHMES-1 cells); assay type: cell-based; conditions: Table 13
Bridges are numbered along the chain shown (N, C = ends). Roman numbers before positions name the chains, in order. Where no end group is shown, it is not given here. [ ]: non-standard residue; d: D form. βAla = NCCC(=O)O

[
  {
    "substance": "D4-3 Bis-MAL-PEG11: dimeric peptide: two D4-3 macrocycles linked through C-terminal Cys by Bis-MAL-PEG11 linker ({CH2CO}-[dY]RQFNRRTHEVWNLDCGC; thioether N-16; not fully specified (residue 18); also: dimer: two copies joined by Bis-MAL-PEG11, linker at 18 via Bis-MAL-PEG11, other end not in the chain)",
    "c-Met phosphorylation": "Promote"
  },
  {
    "substance": "D5-4 Bis-MAL-PEG11: dimeric peptide: two D5-4 macrocycles linked through C-terminal Cys by Bis-MAL-PEG11 linker (peptide 1 {CH2CO}-[dY]WYYAWDQTYKAFPCG; peptide 2 {CH2CO}-[dY]WYYAWDQTYKAFPCG; thioether I:N-I:15, II:N-II:15; not fully specified (C-terminus); also: dimer: two chains joined by Bis-MAL-PEG11 through an added C-terminal Cys not in the letters)",
    "c-Met phosphorylation": "Promote"
  },
  {
    "substance": "L5-2 Bis-MAL-PEG11: dimeric peptide: two L5-2 macrocycles linked through C-terminal Cys by Bis-MAL-PEG11 linker ({CH2CO}-YISWNEFNSPNWRFITCG[βAla]C-NH2; thioether N-17; not fully specified (residue 20); also: dimer: two copies joined by Bis-MAL-PEG11, linker at 20 via Bis-MAL-PEG11, other end not in the chain)",
    "c-Met phosphorylation": "Promote"
  }
]

---

molecular target: c-Met-Fc (Homo sapiens, UniProt P08581); test: Binding ability by surface plasmon resonance (SPR, Biacore); conditions: Table 8, c-Met-Fc
Bridges are numbered along the chain shown (N, C = ends). [ ]: non-standard residue; d: D form. NMeE = CN[C@@H](CCC(=O)O)C(=O)O; NMeQ = CN[C@@H](CCC(N)=O)C(=O)O; NMeN = CN[C@@H](CC(N)=O)C(=O)O; NMeL = CN[C@@H](CC(C)C)C(=O)O
The entries below are paired with their reported ka.
readout type: ka

[
  {
    "substance": "N10: N-methylated peptide of D4-3 ({CH2CO}-[dY]RQFNRRTH[NMeE]VWNLDC-NH2; thioether N-16; also: bridge 1-16 listed as disulfide) [Peptide N10]",
    "result": "0.25 10^5 M^−1s^−1"
  },
  {
    "substance": "N5: N-methylated peptide of D4-3 ({CH2CO}-[dY]RQF[NMeN]RRTHEVWNLDC-NH2; thioether N-16; also: bridge 1-16 listed as disulfide) [Peptide N5]",
    "result": "0.19 10^5 M^−1s^−1"
  },
  {
    "substance": "N14: N-methylated peptide of D4-3 ({CH2CO}-[dY]RQFNRRTHEVWN[NMeL]DC-NH2; thioether N-16; also: bridge 1-16 listed as disulfide) [Peptide N14]",
    "result": "0.21 10^5 M^−1s^−1"
  },
  {
    "substance": "N3: N-methylated peptide of D4-3 ({CH2CO}-[dY]R[NMeQ]FNRRTHEVWNLDC-NH2; thioether N-16; also: bridge 1-16 listed as disulfide) [Peptide N3]",
    "result": "0.27 10^5 M^−1s^−1"
  }
]
